Biological target: human μ-calpain (Homo sapiens)
Sequence (P07384 whole entry): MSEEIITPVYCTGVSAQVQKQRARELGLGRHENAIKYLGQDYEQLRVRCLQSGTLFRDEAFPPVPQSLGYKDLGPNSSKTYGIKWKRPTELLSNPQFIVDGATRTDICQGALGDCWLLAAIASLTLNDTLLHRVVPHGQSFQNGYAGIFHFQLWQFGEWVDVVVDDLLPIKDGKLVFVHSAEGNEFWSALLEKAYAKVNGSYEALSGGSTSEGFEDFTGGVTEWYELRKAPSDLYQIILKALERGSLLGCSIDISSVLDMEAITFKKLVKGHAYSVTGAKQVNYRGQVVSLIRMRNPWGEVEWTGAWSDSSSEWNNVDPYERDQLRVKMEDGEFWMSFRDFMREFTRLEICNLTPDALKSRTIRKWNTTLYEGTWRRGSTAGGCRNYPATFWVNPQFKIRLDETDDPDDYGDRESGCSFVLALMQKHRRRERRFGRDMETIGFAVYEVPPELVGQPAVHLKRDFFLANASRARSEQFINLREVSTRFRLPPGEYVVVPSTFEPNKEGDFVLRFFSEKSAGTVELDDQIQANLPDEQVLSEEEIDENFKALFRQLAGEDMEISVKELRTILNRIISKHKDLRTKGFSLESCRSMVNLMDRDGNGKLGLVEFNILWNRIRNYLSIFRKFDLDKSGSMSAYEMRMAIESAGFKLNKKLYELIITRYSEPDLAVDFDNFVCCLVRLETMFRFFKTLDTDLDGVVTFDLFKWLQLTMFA
Sequence (P04632 whole entry partner): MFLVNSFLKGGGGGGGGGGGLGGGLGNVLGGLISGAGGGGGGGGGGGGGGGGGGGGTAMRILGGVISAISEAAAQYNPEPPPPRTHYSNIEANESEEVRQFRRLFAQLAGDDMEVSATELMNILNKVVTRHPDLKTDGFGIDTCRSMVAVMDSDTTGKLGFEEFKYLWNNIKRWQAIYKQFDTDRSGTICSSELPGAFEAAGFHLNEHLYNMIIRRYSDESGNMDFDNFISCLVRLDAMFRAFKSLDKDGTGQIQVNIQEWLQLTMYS
ASSAY_ENDPOINT: IC50 (nM)

Worked set:
| COMPOUND | TEST_SYSTEM | MEASUREMENT |
| --- | --- | --- |
| CCNC(=O)C(=O)[C@H](CC(C)C)NC(=O)[C@@H](NC(=O)CCCCC1CCSS1)C(C)C (stereo partly shown) [Example 157] | human μ-calpain (Homo sapiens) | 500 |
| CCNC(=O)C(=O)[C@H](Cc1ccc(Cl)c(Cl)c1)NC(=O)[C@H](CC(C)C)NC(=O)CCCCC1CCSS1 (stereo partly shown) [Example 31] | human μ-calpain (Homo sapiens) | 30 |
| CCNC(=O)C(=O)[C@H](Cc1ccc(Cl)cc1Cl)NC(=O)[C@H](CC(C)C)NC(=O)CCCCC1CCS[S+]1[O-] (stereo partly shown) [Example 36] | human μ-calpain (Homo sapiens) | 40 |
| CCNC(=O)C(=O)[C@H](Cc1ccc(C(F)(F)F)cc1)NC(=O)[C@@H](NC(=O)CCCCC1CCSS1)C(C)C (stereo partly shown) [Example 122] | human μ-calpain (Homo sapiens) | 200 |
| CCNC(=O)C(=O)[C@@H](NC(=O)[C@@H](NC(=O)CCCCC1CCS[S+]1[O-])C(C)C)c1ccccc1 (stereo partly shown) [Example 154] | human μ-calpain (Homo sapiens) | 750 |

a: CCNC(=O)C(=O)[C@H](Cc1ccc(Cl)cc1Cl)NC(=O)[C@@H](NC(=O)CCCCC1CCSS1)C(C)C (stereo partly shown) [Example 33]
b: CCNC(=O)C(=O)[C@H](Cc1ccc(O)cc1)NC(=O)[C@H](CC(C)C)NC(=O)CCCCC1CCSS1 (stereo partly shown) [Example 82]
Task: Of the pair a and b , name the member with the lesser recorded IC50. Let me know the label of the one you choose.
Output: b
(b: 40 nM, a: 100 nM)

====

Molecular target: human μ-calpain (Homo sapiens)
pIC50: −log10 of the molar value.
ASSAY_ENDPOINT: pIC50

| COMPOUND | MEASUREMENT |
| --- | --- |
| CCNC(=O)C(=O)[C@H](Cc1ccc(OC)cc1)NC(=O)[C@H](CC(C)C)NC(=O)CCCCC1CCSS1 (stereo partly shown) | 7.82 |
| CCNC(=O)C(=O)[C@H](Cc1ccc(Br)cc1)NC(=O)[C@@H](NC(=O)CCCCC1CCSS1)C(C)CC (stereo partly shown) | 6.74 |
| CCNC(=O)C(=O)[C@H](Cc1ccc(O)cc1)NC(=O)[C@@H](NC(=O)CCCCC1CCSS1)C(C)C (stereo partly shown) | 6.82 |

A: Cc1ccc(S(=O)(=O)CNC(=O)C(=O)[C@H](Cc2ccc(Cl)cc2)NC(=O)[C@H](CC(C)C)NC(=O)CCCCC2CCS[S+]2[O-])cc1 (stereo partly shown)
B: CCNC(=O)C(=O)[C@H](Cc1ccc(Br)cc1)NC(=O)[C@H](CC(C)C)NC(=O)CCCCC1SC[C@@H]2NC(=O)N[C@H]12 (stereo partly shown)
C: CCNC(=O)C(=O)[C@H](Cc1cccc(C(F)(F)F)c1)NC(=O)[C@H](CC(C)C)NC(=O)CCCCC1CCS[S+]1[O-] (stereo partly shown)
Task: // ascending sort on recorded pIC50 Give the order by naming the labels one after another as requested.
Output: A, C, B
(A: 6.92, C: 7.30, B: 7.70)
